# Study Target: cyclin E/CDK2 enzyme (Homo sapiens, UniProt P24941)
# Construct: made in house; host or cells: Sf9 insect cells, recombinant baculovirus
# Assay Summary: CDK2 ELISA kinase assay (phospho-Rb ser 795 detection)
# Assay type: biochemical
# Applied Conditions: In Vitro Enzyme Assay, cyclin E/CDK2, read-out: CDK2 IC50
Readout: IC50 (µM)
One number for each entry, in µM.

Here are 3 compounds together with their reported answers.
> print(dat)
                                   compound  recorded.number
1  O=C1NC(=O)c2ccc(-c3cccc(F)c3)cc2C1=CNCc1ccc(O)c(O)c1              9.6
2  CN1CCN(c2ccc(NC=C3C(=O)NC(=O)c4ccc(-c5ccc6c(ccn6CC(N)=O)c5)cc43)cc2)CC1             10.3
3  COc1ccc(-c2ccc3c(c2)C(=CNCc2ccc(O)c(O)c2)C(=O)NC3=O)cc1              7.3

Then there is this compound:
Tell us which IC50 value is on record for O=C1NC(=O)c2ccccc2C1=CNCC(O)c1ccc(O)c(O)c1 (stereo not shown)
13.8

* * *

# Study Target: cyclin E/CDK2 enzyme (Homo sapiens)
# Construct: made in house; host or cells: Sf9 insect cells, recombinant baculovirus
# Assay Summary: CDK2 ELISA kinase assay (phospho-Rb ser 795 detection)
# Assay type: biochemical
# Applied Conditions: In Vitro Enzyme Assays, read-out: CDK2 IC50
pIC50: −log10 of the molar value.
Provide the recorded pIC50 for the entries that follow.

Check out these entries, answers already filled in.
> print(dat)
                                   molecule  result
1  CC1(C)Oc2cc(CN/C=C3\C(=O)NC(=O)c4ccc(Br)cc43)cc(OC(=O)C3CC3)c2O1    4.61
2  COc1ccc(CN/C=C2\C(=O)NC(=O)c3ccc(-c4ccsc4)cc32)cc1O    4.74
3  O=C1NC(=O)c2ccc(Br)cc2/C1=C/Nc1ccc(N2CCC(N3CCCC3)CC2)c(F)c1  < 4.30

Dear colleague, could you please provide pIC50 for the molecules listed below?
1. O=C1NC(=O)c2ccc(Br)cc2/C1=C/Nc1cc(F)c(N2CCN3CCC[C@H]3C2)c(F)c1
2. CC1CN(C)[C@H](C)CN1c1ccc(N/C=C2\C(=O)NC(=O)c3ccc(Br)cc32)cc1 (stereo in doubt)
3. COc1c(O)cc(CN/C=C2\C(=O)NC(=O)c3ccc(Br)cc32)cc1O
4. O=C1NC(=O)c2ccc(Br)cc2/C1=C/NCc1cccc(O)c1

1. < 4.30
2. < 4.30
3. 5.68
4. < 4.30

* * *

# System: BT474
# Assay Summary: Cytotoxicity assay (SRB), BT474
# Assay type: cell-based
# Applied Conditions: Homo sapiens, BT-474, 144 h, BT474 cells, SRB, 6 days; read-out: In Vitro Cellular Activity IC50 BT474
Task for the reader: assign each of the following molecules its reported pIC50.
Give bare numbers, as −log10 of the molar value.

// worked examples, pIC50 included
> print(dat)
                               smiles.input  study.target  readout  recorded.number
1  C[C@@H]1CN(c2ccc(N/C=C3\C(=O)NC(=O)c4ccc(Br)cc43)cc2F)C[C@H](C)N1         BT474    pIC50             5.72
2  COc1ccc(CN/C=C2\C(=O)N(C(C)=O)N(C(C)=O)c3ccccc32)cc1O         BT474    pIC50             5.02
3  CN(C)CCS(=O)(=O)c1ccc(N/C=C2\C(=O)NC(=O)c3ccc(Br)cc32)cc1         BT474    pIC50             4.89

// next entry
Give reported pIC50 value for O=C1NC(=O)c2ccc(I)cc2/C1=C/Nc1ccc(CN2CCOCC2)cc1
5.21
